- System: HOP-92 NSCLC
- Assay Summary: NCI tumour cell line growth inhibition, 48 h
Property Name: TGI (µM)
Entry rule: numbers only, all in µM.

Solved entries:
>>> test_result("O=C1c2ccccc2CCC1(Br)Br")
2.58
>>> test_result("CN1CCN(CCCOc2ccc3nc(Nc4ccc(C(F)(F)F)c(Cl)c4)ccc3c2)CC1")
2.94
>>> test_result("CCOC1=C2C(C)(CCC3[C@@]4(C)C=CC(=O)C(C)(C)C4CC(O)[C@@]23C)C(c2ccoc2)C1=O (stereo not given in full)")
41.9

Query string: Param readout = TGI; param system = HOP-92 NSCLC; param query = `N#Cc1nc(Nc2ccc(Cl)cc2)sc1N` ; response: value
Result string: 52.1

----------
- Tested on: HS 578T breast
- Assay Summary: NCI tumour cell line growth inhibition, 48 h; in the data active means GI50 below about 0.43 µM; inactive means the rest
Use one of these outcomes when replying: active, inactive

>>> answer_label("c1ccc(C2=NN[C@H](c3cn(-c4ccccc4)nc3-c3ccccc3)C2)cc1")
"inactive"
>>> answer_label("CC(C)NCCCCCNc1cc(O)cc2cccnc12")
"inactive"
>>> answer_label("N#C/C(=C\\c1ccc([N+](=O)[O-])s1)c1nc2cc(Br)ccc2s1")
"inactive"
>>> answer_label("CS(=O)(=O)c1ccc(-c2[nH]c3ccc(F)cc3c2/C=N/NC(N)=S)cc1")
"active"
>>> answer_label("N=C(N)c1ccc(-c2ccc(-c3ccc(Cl)c(Cl)c3)o2)nc1")
"inactive"
>>> answer_label("CNc1ccc(C(=O)CC(O)CCC(C)C2OC(=O)CC(O)CC(=O)CC(O)CC(O)CC(O)CC(O)CC3(O)CC(O)C(C(=O)NCCc4ccccn4)C(CC(OC4OC(C)C(O)C(N)C4O)/C=C/C=C/C=C/C=C\\C=C/C=C/C=C/C2C)O3)cc1 (centres undefined)")
"inactive"
>>> answer_label("CN1CCN(CCCOc2ccc3nc(Nc4ccc(C(F)(F)F)c(Cl)c4)ccc3c2)CC1")
"inactive"
>>> answer_label("Cc1csc(-c2ccc3c(c2)COC3(CCCN(C)C)c2ccc(F)cc2)c1 (centres undefined)")
"inactive"

Shifting focus to the molecule that follows.
Query string: Please let me know the test result on file for `O=c1cc(-c2ccccc2)nc2cc(-c3ccco3)[nH]n12` .
Result string: inactive

----------
- Test system: LOX IMVI melanoma
- Assay Summary: NCI tumour cell line growth inhibition, 48 h
Listing: TGI of selected compounds

>>> test_result("Nc1ncnc2c1c(C(=O)NO)cn2C1OC(CO)C(O)C1O (stereo not given)")
"1.77 µM"

Query string: # TGI lookup, item N#Cc1c(-c2ccccc2)c(C#N)c(=S)n(C2OCC(O)C(O)C2O)c1N (stereo not given)
Result string: > 100 µM

Query string: For the compound `C=CCN(c1cc(OCc2ccccc2)c2c(c1)c(C)cn2S(=O)(=O)c1ccccc1)S(C)(=O)=O` , what TGI is on record?
Result string: > 100 µM

Query string: So what does the record say about TGI for `CCN(CC)C(=O)N[C@@H](Cc1ccccc1)C(=O)NC` ?
Result string: > 100 µM

Query string: Requested field: TGI. Item: `O=C(Nc1ccc(O)c(NS(=O)(=O)c2ccc(F)cc2)c1)c1ccc(-c2ccccc2)cc1`
Result string: 21.1 µM

Query string: Which TGI value is on record for O=C1CSC(c2ccccc2[N+](=O)[O-])N1c1ccc(-n2c(-c3ccccc3)nc3ccccc3c2=O)cc1 (stereo not given) ?
Result string: > 100 µM

Query string: Would you mind telling me what TGI value was observed for `CCN(CC)c1nc(=O)c(C(=O)C(C)(C)C)c(C(C)(C)C)o1` ?
Result string: > 100 µM
